experimentalSystem: TTBK1 (Homo sapiens, UniProt Q5TCY1)
Construct: TTBK1 1-479aa; SignalChem Catalog # T17-11G-05
Sequence (Q5TCY1 1-479): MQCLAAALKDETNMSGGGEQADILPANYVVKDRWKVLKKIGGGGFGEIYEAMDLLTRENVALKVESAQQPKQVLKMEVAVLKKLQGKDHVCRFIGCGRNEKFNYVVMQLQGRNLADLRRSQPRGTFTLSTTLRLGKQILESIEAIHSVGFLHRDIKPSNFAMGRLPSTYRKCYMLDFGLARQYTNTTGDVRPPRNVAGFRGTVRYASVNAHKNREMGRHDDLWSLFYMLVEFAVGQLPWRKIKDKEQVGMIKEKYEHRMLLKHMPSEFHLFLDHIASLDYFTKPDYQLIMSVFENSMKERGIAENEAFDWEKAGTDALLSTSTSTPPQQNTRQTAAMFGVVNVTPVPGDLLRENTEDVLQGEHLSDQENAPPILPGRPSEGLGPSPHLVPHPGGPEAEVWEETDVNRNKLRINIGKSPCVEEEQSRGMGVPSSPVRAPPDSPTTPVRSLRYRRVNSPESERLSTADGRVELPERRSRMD
protocolSummary: TTBK biochemical (recombinant kinase) assay
metricName: IC50

Q. Identify the measured IC50 of "CN[C@@H]1C[C@H]2O[C@@](C)([C@@H]1OC)n1c3ccccc3c3c4c(c5c6ccccc6n2c5c31)C(=O)NC4" for TTBK1 (Homo sapiens, UniProt Q5TCY1).
A. > 30 µM

###

protocolSummary: Free drug in the brain after hypothermia experiment
Format: in vivo
details: C57Bl/6, mouse, intraperitoneal, 50mg/kg I.P., one hour after dosing, read-out: average free drug in the brain
metricName: concentration at 1 h
Output should be the measured figure followed by the unit it is expressed in.

Q. Which concentration at 1 h value belongs to CCC(C)(O)C#Cc1cc2c(ccn2-c2ccnc(N)n2)cn1 (stereo not shown) ?
A. 602 nM
